B1: TPR 5TU (parent)
chain: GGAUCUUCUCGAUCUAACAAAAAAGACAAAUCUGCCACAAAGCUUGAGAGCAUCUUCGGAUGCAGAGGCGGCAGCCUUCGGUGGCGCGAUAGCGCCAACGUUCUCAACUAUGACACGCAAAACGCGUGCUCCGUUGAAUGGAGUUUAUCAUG

variants of: B1; assay: polymerase ribozyme fitness, log enrichment relative to wild type (log ratio); higher = more active; in vitro selection for triplet polymerase activity
This sample holds only a part of the variants without activity.
Please provide measured polymerase ribozyme fitness (log ratio) for the entries that follow.
One number for each entry.

Below: 10 variants and their reported polymerase ribozyme fitness (log ratio).
{"columns": ["Changes", "polymerase ribozyme fitness (log ratio)"],
 "data": [
  ["A12U U55A C87U A119U U127C", -3.82],
  ["C32G G92U U127G G152U", -3.98],
  ["A47U C85A U139G", -1.24],
  ["G59C C96U U146A", 0.268],
  ["U6C G48A A106G", -3.13],
  ["U31C C69U G86U C96U A142G", -2.99],
  ["A20C A47U C51U C105U U144A", -2.59],
  ["A17U A60U", -0.153],
  ["C54A C85U", -1.86],
  ["C63G C76U", 0.0444]
]}

Hi team, please reply with polymerase ribozyme fitness (log ratio) for each item in this list.
1. C38U U53G C96G
2. A24U C93U A119C

[-1.73, -1.98]
